Where do the numbers come from? From patent US8476261B2.

# system.name: recombinant full-length human GSK3β (Homo sapiens)
# Construct: recombinant full-length human GSK3β (Upstate); purchased Upstate
# protocol.details: cell-free GSK3 kinase assay (KinaseGlo luciferase)
# Format: biochemical
# measurement.parameters: Table 1; 5 μM ATP, 1 hour at 30 degrees Celsius
Could you please report measured IC50 for the items listed next?

// lookup IC50 for Cc1cc(=O)c2c(N)c(F)c(NCCNc3ccccn3)c3c2n1C1(CCC1)CCO3 > 150 nM

// lookup IC50 for CC(COc1ccc(Cl)cc1)Nc1c(F)c(N)c2c(=O)c(C(=O)O)cn3c2c1OCC31CCCC1 (centres unmarked) > 150 nM

// lookup IC50 for Nc1c(F)c(NCCNc2ccccn2)c2c3c1c(=O)c(C(=O)O)cn3C1(CCC1)CCN2 16 to 60 nM

// lookup IC50 for Cc1nn(C)c(C)c1CCCNc1c(F)c(N)c2c(=O)c(C#N)cn3c2c1OCC31CCCC1 < 15 nM

// lookup IC50 for N#Cc1cn2c3c(c(NCCNc4ccccn4)c(F)c(N)c3c1=O)OCCC21CCC1 16 to 60 nM

// lookup IC50 for Cc1ccc(OCCNc2c(F)c(N)c3c(=O)c(C(=O)O)cn4c3c2OCC42CCCC2)cc1 16 to 60 nM

// lookup IC50 for Nc1c(F)c(NCCCc2ccc(Cl)cc2)c2c3c1c(=O)c(C(=O)O)cn3C1(CCCC1)CO2 > 150 nM

// lookup IC50 for N#Cc1cn2c3c(c(NCCCn4ccnc4)c(F)c(N)c3c1=O)OCCC21CCC1 16 to 60 nM

// lookup IC50 for Nc1c(F)c(NCCCc2ccccn2)c2c3c1c(=O)c(-c1nnn[nH]1)cn3C1(CCCC1)CO2 16 to 60 nM

// lookup IC50 for COc1ccc(CCCNc2c(F)c(N)c3c(=O)c(C(=O)O)cn4c3c2OCC42CCCC2)cc1 < 15 nM

// lookup IC50 for Nc1c(F)c(NCCNc2ccccn2)c2c3c1c(=O)c(C(=O)NO)cn3C1(CCC1)CCO2 < 15 nM

---

# system.name: recombinant full-length human GSK3β (Homo sapiens, UniProt P49841)
# Construct: recombinant full-length human GSK3β (Upstate); purchased Upstate
# Sequence (P49841 whole entry): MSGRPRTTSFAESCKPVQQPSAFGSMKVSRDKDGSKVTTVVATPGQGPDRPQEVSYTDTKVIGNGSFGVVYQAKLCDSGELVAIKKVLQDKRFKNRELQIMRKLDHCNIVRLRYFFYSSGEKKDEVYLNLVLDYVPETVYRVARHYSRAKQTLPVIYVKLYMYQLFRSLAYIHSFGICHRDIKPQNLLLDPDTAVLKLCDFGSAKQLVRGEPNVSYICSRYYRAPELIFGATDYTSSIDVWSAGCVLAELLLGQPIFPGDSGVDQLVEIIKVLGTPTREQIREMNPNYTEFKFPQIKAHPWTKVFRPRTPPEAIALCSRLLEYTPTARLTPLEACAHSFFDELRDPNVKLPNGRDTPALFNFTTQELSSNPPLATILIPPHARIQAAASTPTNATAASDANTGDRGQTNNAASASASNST
# protocol.details: cell-free GSK3 kinase assay (KinaseGlo luciferase)
# Format: biochemical
# measurement.parameters: Table 1; 5 μM ATP, 1 hour at 30 degrees Celsius
observable: IC50

Could you share what IC50 was measured for N#Cc1ccc(CCCNc2c(F)c(N)c3c(=O)c(C(=O)O)cn4c3c2OCC42CCCC2)nc1 , tested on recombinant full-length human GSK3β (Homo sapiens, UniProt P49841)? < 0.015 µM

Could you share what IC50 was measured for Nc1c(F)c(NCCS(=O)(=O)N2CCCCC2)c2c3c1c(=O)c(C(=O)O)cn3C1(CCCC1)CO2 , tested on recombinant full-length human GSK3β (Homo sapiens, UniProt P49841)? 0.061 to 0.15 µM

Could you share what IC50 was measured for CCOc1ccc(CCCNc2c(F)c(N)c3c(=O)c(C(=O)O)cn4c3c2OCC42CCCC2)cc1OCC , tested on recombinant full-length human GSK3β (Homo sapiens, UniProt P49841)? 0.016 to 0.06 µM

Could you share what IC50 was measured for CCN(CCCNc1c(F)c(N)c2c(=O)c(C(=O)O)cn3c2c1OCCC31CCC1)c1ccccc1 , tested on recombinant full-length human GSK3β (Homo sapiens, UniProt P49841)? 0.016 to 0.06 µM

Could you share what IC50 was measured for N#Cc1cn2c3c(c(NCCCc4ccccn4)c(F)c(N)c3c1=O)OCC21CCCC1 , tested on recombinant full-length human GSK3β (Homo sapiens, UniProt P49841)? < 0.015 µM

Could you share what IC50 was measured for Nc1c(F)c(NCCC(c2ccccc2)c2ccc3c(c2)OCO3)c2c3c1c(=O)c(C(=O)O)cn3C1(CCCC1)CO2 (stereo not drawn) , tested on recombinant full-length human GSK3β (Homo sapiens, UniProt P49841)? > 0.15 µM

Could you share what IC50 was measured for CC(C)c1ccc(OCCNc2c(F)c(N)c3c(=O)c(C(=O)O)cn4c3c2OCC42CCCC2)cc1 , tested on recombinant full-length human GSK3β (Homo sapiens, UniProt P49841)? > 0.15 µM

Could you share what IC50 was measured for Nc1c(F)c(NCCNC2=NS(=O)(=O)c3ccccc32)c2c3c1c(=O)c(C(=O)O)cn3C1(CCCC1)CO2 , tested on recombinant full-length human GSK3β (Homo sapiens, UniProt P49841)? < 0.015 µM

Could you share what IC50 was measured for Nc1c(F)c(N[C@@H]2C[C@H]2Cc2ccccn2)c2c3c1c(=O)c(C(=O)O)cn3C1(CCCC1)CO2 , tested on recombinant full-length human GSK3β (Homo sapiens, UniProt P49841)? 0.016 to 0.06 µM

Could you share what IC50 was measured for Cc1[nH]ncc1CCCNc1c(F)c(N)c2c(=O)c(C(=O)O)cn3c2c1OCC31CCCC1 , tested on recombinant full-length human GSK3β (Homo sapiens, UniProt P49841)? < 0.015 µM

Could you share what IC50 was measured for Nc1c(F)c(NCCNc2ccccn2)c2c3c1c(=O)c(C(=O)O)cn3CC1(CC1)CO2 , tested on recombinant full-length human GSK3β (Homo sapiens, UniProt P49841)? > 0.15 µM

Could you share what IC50 was measured for COc1ccc(CNc2c(F)c(N)c3c(=O)c(C(=O)O)cn4c3c2OCCC42CCC2)cc1 , tested on recombinant full-length human GSK3β (Homo sapiens, UniProt P49841)? 0.061 to 0.15 µM

Could you share what IC50 was measured for Cc1cc(NCCNc2c(F)c(N)c3c(=O)c(C(=O)O)cn4c3c2OCC42CCCC2)nc2ccccc12 , tested on recombinant full-length human GSK3β (Homo sapiens, UniProt P49841)? 0.061 to 0.15 µM

Could you share what IC50 was measured for N=C(NO)c1cn2c3c(c(NCCCn4ccnc4)c(F)c(N)c3c1=O)OCC21CCCC1 , tested on recombinant full-length human GSK3β (Homo sapiens, UniProt P49841)? 0.061 to 0.15 µM

Could you share what IC50 was measured for CC(CCc1ccccc1Cl)Nc1c(F)c(N)c2c(=O)c(C(=O)O)cn3c2c1OCC31CCCC1 (stereo not drawn) , tested on recombinant full-length human GSK3β (Homo sapiens, UniProt P49841)? 0.016 to 0.06 µM

---

# system.name: recombinant full-length human GSK3β (Homo sapiens, UniProt P49841)
# Construct: recombinant full-length human GSK3β (Upstate); purchased Upstate
# protocol.details: cell-free GSK3 kinase assay (KinaseGlo luciferase)
# Assay type: biochemical
# measurement.parameters: Table 1; 5 μM ATP, 1 hour at 30 degrees Celsius
observable: IC50

// lookup IC50 for CC(CCc1ccc(Cl)cc1)Nc1c(F)c(N)c2c(=O)c(C(=O)O)cn3c2c1OCC31CCCC1 (stereo not drawn) [Compound 6] 16 to 60 nM

// lookup IC50 for Nc1nc(NCCNc2c(F)c(N)c3c(=O)c(C(=O)O)cn4c3c2OCCC42CCC2)ccc1[N+](=O)[O-] [Compound 61] 61 to 150 nM

// lookup IC50 for CNC(=O)c1cn2c3c(c(NCCNc4ccccn4)c(F)c(N)c3c1=O)OCCC21CCC1 [Compound 90] > 150 nM

// lookup IC50 for Nc1c(F)c(NCCNc2ccccn2)c2c3c1c(=O)c(C(=O)O)cn3C1(CCO2)CC1 [Compound 46] 16 to 60 nM

// lookup IC50 for Nc1c(F)c(NCCOc2ccc(-c3ccccc3)cc2)c2c3c1c(=O)c(C(=O)O)cn3C1(CCCC1)CO2 [Compound 75] > 150 nM

// lookup IC50 for N#Cc1cn2c3c(c(NCCCn4ccnc4)c(F)c(N)c3c1=O)OCC21CCCC1 [Compound 37] < 15 nM

// lookup IC50 for Nc1c(F)c(N2CCC(Nc3ccccn3)C2)c2c3c1c(=O)c(C(=O)O)cn3C1(CCCC1)CO2 (stereo not drawn) [Compound 98] > 150 nM

// lookup IC50 for Cc1ccc2nc(C)cc(NCCNc3c(F)c(N)c4c(=O)c(C(=O)O)cn5c4c3OCC53CCCC3)c2c1 [Compound 15] < 15 nM

// lookup IC50 for Nc1c(F)c(NCCN2CCc3ccccc32)c2c3c1c(=O)c(C(=O)O)cn3C1(CCCC1)CO2 [Compound 24] 61 to 150 nM

// lookup IC50 for Nc1c(F)c(NCCNc2ccccn2)c2c3c1c(=O)c(C(=O)O)cn3C1(CCCC1)CO2 [Compound 1] < 15 nM

// lookup IC50 for Nc1c(F)c(NCCNC(=O)c2ccccn2)c2c3c1c(=O)c(C(=O)O)cn3C1(CCC1)CCO2 [Compound 58] 16 to 60 nM

// lookup IC50 for Nc1c(F)c(NCCN2CCC(c3ccccc3)C2)c2c3c1c(=O)c(C(=O)O)cn3C1(CCCC1)CO2 (stereo not drawn) [Compound 71] > 150 nM

// lookup IC50 for Nc1c(F)c(NCCCn2cnc3ccccc32)c2c3c1c(=O)c(C(=O)O)cn3C1(CCCC1)CO2 [Compound 70] < 15 nM

// lookup IC50 for Cc1cc(OCCNc2c(F)c(N)c3c(=O)c(C(=O)O)cn4c3c2OCC42CCCC2)ccc1Cl [Compound 10] 16 to 60 nM

// lookup IC50 for COc1ccc(OCCNc2c(F)c(N)c3c(=O)c(C(=O)O)cn4c3c2OCC42CCCC2)cc1 [Compound 34] 61 to 150 nM
